- testTarget: HIV-1 pseudovirus SC05.8C11.2344 (HIV-1)
- methodDescription: cell-based or functional assay
Form field: IC50 (neutralization in TZM.bl cells) (one value per entry).
assayMetric: IC50 (neutralization in TZM.bl cells) (µg/mL)

>>> recordednumber("MS-77 (antibody, V domains shown) VH: QVQLVQSGPEVRKPGTSVKVSCKAPGNTFKTYDLHWVRSVPGQGLQWMGWISHEGDKKVIVERFKAKVTIDWDRSTNTAYLQLSGLTSGDTAVYYCAKGSKHRLRDYALYDDDGALNWAVDVDYLSNLEFWGQGTAVTVSS VL: DFVLTQSPHSLSVTPGESASISCKSSHSLIHGDRNNYLAWYVQKPGRSPQLLIYLASSRASGVPDRFSGSGSDKDFTLKISRVETEDVGTYYCMQGRESPWTFGQGTKVDIKR")
0.516
>>> recordednumber("MS-74 (antibody, V domains shown) VH: QVQLVQSGPEVRKPGTSVKVSCKAPGNTLKTYDLHWVRSVPGQGLQWMGWISHEGDKKVIVERFKAKVTIDWDRSTNTAYLQLSGLTSGDTAVYYCAKGSKHRLRDYALYDDDGALNWAVDVDYLSNLEFWGQGTAVTVSS VL: DFVLTQSPHSLSVTPGESASISCKSSHSLIHGDRNNYLAWYVQKPGRSPQLLIYLASSRASGVPDRFSGSGSDKDFTLKISRVETEDVGVYYCMQGRESPWTFGQGTKVDIKR")
0.415
>>> recordednumber("MS-80 (antibody, V domains shown) VH: QVQLVQSGPEVRKPGTSVKVSCKAPGNTLKTYDLHWVRSVPGQGLQWMGWISHEGDKKVIVERFKAKVTIDRDRSTNTAYLQLSGLTSGDTAVYYCAKGSKHRLRDYALYDDDGALNWAVDVDYLSNLEFWGQGTAVTVSS VL: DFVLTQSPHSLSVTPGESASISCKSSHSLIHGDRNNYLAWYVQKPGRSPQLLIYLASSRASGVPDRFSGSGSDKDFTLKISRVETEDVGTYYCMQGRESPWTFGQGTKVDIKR")
0.898
>>> recordednumber("MS-83 (antibody, V domains shown) VH: QVQLVQSGPEVRKPGTSVKVSCKAPGNTLKTYDLHWVRSVPGQGLQWMGWISHEGDKKVIVERFKAKVTIDWDRSTNTAYLQLSGLTSGDTAVYYCAKGSKHRLRDYALYDDEGALNWAVDVDYLSNLEFWGQGTAVTVSS VL: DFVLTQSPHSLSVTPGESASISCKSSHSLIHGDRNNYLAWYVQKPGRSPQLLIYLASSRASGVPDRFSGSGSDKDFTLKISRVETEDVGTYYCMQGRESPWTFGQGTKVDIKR")
0.381
>>> recordednumber("MS-89 (antibody, V domains shown) VH: QVQLVQSGPEVRKPGTSVKVSCKAPGYTLKTYDLHWVRSVPGQGLQWMGWISHEGDKKVIVERFKAKVTITWDRSTNTAYLQLSGLTSGDTAVYYCAKGSKHRLRDYALYDDDGALNWAVDVDYLSNLEFWGQGTAVTVSS VL: DFVLTQSPLSLSVTPGESASISCKSSHSLIHGDRNNYLAWYVQKPGRSPQLLIYLASSRASGVPDRFSGSGSDKDFTLKISRVETEDVGTYYCMQGRESPWTFGQGTKVDIKR")
0.82
>>> recordednumber("MS-75 (antibody, V domains shown) VH: QVQLVQSGPEVRKPGTSVKVSCKASGNTLKTYDLHWVRSVPGQGLQWMGWISHEGDKKVIVERFKAKVTIDWDRSTNTAYLQLSGLTSGDTAVYYCAKGSKHRLRDYALYDDDGALNWAVDVDYLSNLEFWGQGTAVTVSS VL: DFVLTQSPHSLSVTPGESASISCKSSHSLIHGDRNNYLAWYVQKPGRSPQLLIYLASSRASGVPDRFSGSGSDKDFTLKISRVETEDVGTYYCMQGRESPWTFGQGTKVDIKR")
0.792

Source of measurements: patent US20220025021A1
